FYI, the data here is from ChEMBL document CHEMBL6109138.

scaled CLint overview
- assay.procedure: Metabolic stability in human liver microsomes assessed as intrinsic clearance measured per gram liver
- Type: ADME, Microsome
Could you give me the number in mL/min/g? Just the number is fine.

Record O=C1CCc2ccccc2N1CCCN1CCN(c2ccc3ccccc3c2)CC1 , field scaled CLint: 2.95

Record O=C1CCc2ccccc2N1CCCN1CCN(c2cccc3ccccc23)CC1 , field scaled CLint: 5.78

====

- assay.procedure: Metabolic stability in human liver microsomes assessed as intrinsic clearance measured per mg protein
- Type: ADME, Microsome
- setup.conditions: read-out: CLH
microsomal CLint overview
Could you give me the number in µL/min/mg? Just the number is fine.

INSERT INTO assay_data (chem_smiles, measurement_name, value_observed) VALUES
  ('O=C1CCc2ccccc2N1CCCN1CCN(c2cccc3ccccc23)CC1', 'microsomal CLint', 145);

Proceed to the following item.
Record O=C1CCc2ccccc2N1CCCN1CCN(c2ccc3ccccc3c2)CC1 , field microsomal CLint: 73.8

====

// Ki collected for UniProt P14416
Sequence (P14416 whole entry): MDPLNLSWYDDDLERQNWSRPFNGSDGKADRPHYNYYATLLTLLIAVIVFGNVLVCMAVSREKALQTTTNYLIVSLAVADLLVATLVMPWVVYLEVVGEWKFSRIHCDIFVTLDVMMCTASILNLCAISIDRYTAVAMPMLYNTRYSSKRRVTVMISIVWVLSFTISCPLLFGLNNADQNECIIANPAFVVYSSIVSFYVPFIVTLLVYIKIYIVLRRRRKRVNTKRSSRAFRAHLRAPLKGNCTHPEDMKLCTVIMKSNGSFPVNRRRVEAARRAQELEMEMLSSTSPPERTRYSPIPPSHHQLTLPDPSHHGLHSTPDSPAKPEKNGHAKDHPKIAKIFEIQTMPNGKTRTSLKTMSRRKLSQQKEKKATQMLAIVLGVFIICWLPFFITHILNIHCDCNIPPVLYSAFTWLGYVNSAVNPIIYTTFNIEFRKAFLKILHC
Could you give me the number in µM? Just the number is fine.

Worked cases, Ki given:
INSERT INTO assay_data (chem_smiles, value_observed) VALUES
  ('O=C1CCc2ccccc2N1CCCN1CCN(c2cccc3ccccc23)CC1', 0.0288),
  ('O=C1CCc2ccccc2N1CCCN1CCN(c2ccc(C(F)(F)F)cc2)CC1', 29.5),
  ('O=C1CCc2ccccc2N1CCCN1CCN(c2ccc(I)cc2)CC1', 3.24),
  ('O=C1CCc2ccccc2N1CCCN1CCN(C2CCCCC2)CC1', 25.1),
  ('O=C1CCc2ccccc2N1CCCN1CCN(c2ccc3ccccc3c2)CC1', 6.17);

Proceed to the following item.
Param item: COC(=O)c1ccc(N2CCN(CCCN3C(=O)CCc4ccccc43)CC2)cc1 ; param system: UniProt P14416; output Ki: 46.8

====

- assay.procedure: Protein binding in human plasma assessed as unbound fraction at 0.5 uM
- Type: ADME, cell-free
fraction unbound at 0.5 µM overview

INSERT INTO measurements (chem_smiles, value_observed) VALUES
  ('O=C1CCc2ccccc2N1CCCN1CCN(c2cccc3ccccc23)CC1', 0.23);

Record O=C1CCc2ccccc2N1CCCN1CCN(c2ccc3ccccc3c2)CC1 , field fraction unbound at 0.5 µM: 0.41

====

half-life overview
- assay.procedure: Metabolic stability in human liver microsomes assessed as half-life
- Type: ADME, Microsome
Could you give me the number in min? Just the number is fine.

INSERT INTO results (chem_smiles, measurement_name, value_observed) VALUES
  ('O=C1CCc2ccccc2N1CCCN1CCN(c2ccc3ccccc3c2)CC1', 'half-life', 18.8);

Proceed to the following item.
Record O=C1CCc2ccccc2N1CCCN1CCN(c2cccc3ccccc23)CC1 , field half-life: 9.58

====

- assay.procedure: Metabolic stability in mouse liver microsomes assessed as intrinsic clearance measured per gram liver
- Assay type: ADME, Microsome
measurement.name: scaled CLint (mL/min/g)
Could you give me the number in mL/min/g? Just the number is fine.

INSERT INTO assay_data (chem_smiles, unit_string, value_observed) VALUES
  ('O=C1CCc2ccccc2N1CCCN1CCN(c2ccc3ccccc3c2)CC1', 'mL/min/g', 9.09);

Record O=C1CCc2ccccc2N1CCCN1CCN(c2cccc3ccccc23)CC1 , field scaled CLint: 13

====

microsomal CLint overview
- assay.procedure: Metabolic stability in mouse liver microsomes assessed as intrinsic clearance measured per mg protein
- Format: ADME, Microsome
- setup.conditions: read-out: CLH
Could you give me the number in µL/min/mg? Just the number is fine.

INSERT INTO measurements (chem_smiles, value_observed) VALUES
  ('O=C1CCc2ccccc2N1CCCN1CCN(c2cccc3ccccc23)CC1', 288);

Proceed to the following item.
Record O=C1CCc2ccccc2N1CCCN1CCN(c2ccc3ccccc3c2)CC1 , field microsomal CLint: 202

====

- System: T98G
- assay.procedure: Antitumor activity against human T98G cells assessed as total growth inhibition incubated for 48 hrs by SRB assay
- Format: functional
measurement.name: TGI (µM)
Could you give me the number in µM? Just the number is fine.

Worked cases, TGI given:
INSERT INTO assay_data (chem_smiles, assayed_target, measurement_name, unit_string, value_observed) VALUES
  ('O=C1CCc2ccccc2N1CCCN1CCN(c2ccc(Cl)cc2)CC1', 'T98G', 'TGI', 'µM', 66.1),
  ('O=C1CCc2ccccc2N1CCCN1CCN(c2cccc3ccccc23)CC1', 'T98G', 'TGI', 'µM', 32.1);

Param item: O=C1CCc2ccccc2N1CCCN1CCN(c2ccc3ccccc3c2)CC1 ; param system: T98G; output TGI: 42.1

====

GI50 overview
- Test system: U-251
- assay.procedure: Growth inhibition of human U-251MG cells incubated for 48 hrs by SRB assay
- Format: functional
Could you give me the number in µM? Just the number is fine.

Worked cases, GI50 given:
INSERT INTO assay_data (chem_smiles, assayed_target, value_observed) VALUES
  ('O=C1CCc2ccccc2N1CCCN1CCN(c2cccc3ccccc23)CC1', 'U-251', 22.6),
  ('O=C1CCc2ccccc2N1CCCN1CCN(c2ccc(Cl)cc2)CC1', 'U-251', 61.6);

Proceed to the following item.
Record O=C1CCc2ccccc2N1CCCN1CCN(c2ccc3ccccc3c2)CC1 , field GI50: 26.5

====

- System: U-251
- assay.procedure: Antitumor activity against human U-251MG cells assessed as lethal concentration incubated for 48 hrs by SRB assay
- Type: functional
- setup.conditions: read-out: LC50 (the source's name)
measurement.name: CC50 (µM)
Could you give me the number in µM? Just the number is fine.

Worked cases, CC50 given:
INSERT INTO assay_data (chem_smiles, value_observed) VALUES
  ('O=C1CCc2ccccc2N1CCCN1CCN(c2cccc3ccccc23)CC1', 78.7),
  ('O=C1CCc2ccccc2N1CCCN1CCN(c2ccc(Cl)cc2)CC1', 182);

Proceed to the following item.
Param item: O=C1CCc2ccccc2N1CCCN1CCN(c2ccc3ccccc3c2)CC1 ; param system: U-251; output CC50: 201
